Each recorded value in this set is attributed to patent US20140058103A1.

- measured on: PI3K delta (Homo sapiens, UniProt O00329)
- Sequence (O00329 whole entry): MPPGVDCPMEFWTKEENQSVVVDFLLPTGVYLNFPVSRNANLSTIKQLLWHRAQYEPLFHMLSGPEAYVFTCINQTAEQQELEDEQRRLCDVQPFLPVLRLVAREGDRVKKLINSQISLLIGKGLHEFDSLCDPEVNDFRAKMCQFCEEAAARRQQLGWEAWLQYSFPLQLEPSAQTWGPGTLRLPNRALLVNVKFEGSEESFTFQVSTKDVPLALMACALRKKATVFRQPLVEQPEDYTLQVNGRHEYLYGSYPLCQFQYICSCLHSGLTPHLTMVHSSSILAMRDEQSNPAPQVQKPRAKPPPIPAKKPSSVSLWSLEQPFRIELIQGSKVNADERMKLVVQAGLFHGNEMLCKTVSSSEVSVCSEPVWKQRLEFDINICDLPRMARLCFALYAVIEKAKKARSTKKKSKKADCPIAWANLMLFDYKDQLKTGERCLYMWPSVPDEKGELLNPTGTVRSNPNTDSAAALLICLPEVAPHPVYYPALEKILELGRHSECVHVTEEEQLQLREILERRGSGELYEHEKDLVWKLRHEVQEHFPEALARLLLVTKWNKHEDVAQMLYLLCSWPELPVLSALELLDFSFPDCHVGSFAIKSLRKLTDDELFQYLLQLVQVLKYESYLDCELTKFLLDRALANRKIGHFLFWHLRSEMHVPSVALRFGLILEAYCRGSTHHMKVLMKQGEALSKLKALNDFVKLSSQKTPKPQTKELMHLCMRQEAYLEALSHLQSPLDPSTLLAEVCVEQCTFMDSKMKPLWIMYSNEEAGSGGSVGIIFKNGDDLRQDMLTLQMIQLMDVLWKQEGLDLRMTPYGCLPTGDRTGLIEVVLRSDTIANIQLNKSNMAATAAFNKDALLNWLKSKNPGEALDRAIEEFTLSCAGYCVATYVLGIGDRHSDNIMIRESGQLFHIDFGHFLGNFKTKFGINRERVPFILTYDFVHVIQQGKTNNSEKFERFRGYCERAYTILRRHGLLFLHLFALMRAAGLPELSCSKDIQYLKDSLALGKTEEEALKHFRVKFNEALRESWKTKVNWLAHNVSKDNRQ
- Sequence (P27986 whole entry partner): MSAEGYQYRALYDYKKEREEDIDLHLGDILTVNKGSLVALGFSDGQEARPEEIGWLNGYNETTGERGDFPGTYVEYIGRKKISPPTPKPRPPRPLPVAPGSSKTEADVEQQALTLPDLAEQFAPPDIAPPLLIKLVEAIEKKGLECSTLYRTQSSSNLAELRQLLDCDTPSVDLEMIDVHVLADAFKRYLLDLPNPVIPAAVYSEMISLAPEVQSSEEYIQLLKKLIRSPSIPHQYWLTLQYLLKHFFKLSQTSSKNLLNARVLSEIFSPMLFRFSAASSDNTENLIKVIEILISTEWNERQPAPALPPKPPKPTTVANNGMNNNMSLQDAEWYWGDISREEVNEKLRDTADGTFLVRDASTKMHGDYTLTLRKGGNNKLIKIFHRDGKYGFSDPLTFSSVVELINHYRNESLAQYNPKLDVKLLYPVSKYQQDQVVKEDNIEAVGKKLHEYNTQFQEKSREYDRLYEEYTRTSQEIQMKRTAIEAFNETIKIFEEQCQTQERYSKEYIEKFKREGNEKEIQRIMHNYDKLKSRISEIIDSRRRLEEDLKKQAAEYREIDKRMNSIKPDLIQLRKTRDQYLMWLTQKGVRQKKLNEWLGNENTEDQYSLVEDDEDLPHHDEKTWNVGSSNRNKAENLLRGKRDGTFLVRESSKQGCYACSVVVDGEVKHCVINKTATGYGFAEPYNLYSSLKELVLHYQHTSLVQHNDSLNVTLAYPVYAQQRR
- protocol details: Luciferase-coupled chemiluminescence kinase assay (ATP consumption, KinaseGlo)
Please go through the items and note down their IC50.

compound	result
CC1CC(n2c(=O)[nH]c3ccccc32)CCN1c1ncnc2c1nc(C(=O)NCC1CC1)n2C (stereo not shown)	50 to 250 nM

Would you be so kind as to report IC50 for each listed record?
1. CCn1c(-c2cnn(C)c2C)nc2c(N3CCC4(CC3)C(=O)Nc3ccccc34)ncnc21
2. Cn1c(C(=O)NC2CCC(F)(F)CC2)nc2c(N3CCC(n4c(=O)[nH]c5ccccc54)CC3)ncnc21
3. Cn1c(C(=O)NCC2CC2)nc2c(N3CCC(N4c5ccccc5NS4(=O)=O)CC3)ncnc21
4. Cn1c(C(=O)NCC2CC2)nc2c(N3CCC(n4c(C(F)(F)F)nc5ccccc54)CC3)ncnc21
5. CCn1cc(-c2nc3c(N4CCC(n5c(=O)[nH]c6ncccc65)CC4)ncnc3n2CC)cn1
6. CN1C(=O)C2(CCN(c3ncnc4c3nc(C(=O)NCC3CC3)n4C)CC2)c2ccccc21
7. Cn1cc(-c2nc3c(N4CCN(c5ccc(OCC6CC6)cc5)CC4)ncnc3n2C)cn1
8. Cc1ncc(-c2nc3c(N4CCC(n5c(=O)[nH]c6ccccc65)CC4)ncnc3n2C)cn1

Response:
1: < 50 nM; 2: 50 to 250 nM; 3: 50 to 250 nM; 4: 250 to 500 nM; 5: < 50 nM; 6: 500 to 1500 nM; 7: 500 to 1500 nM; 8: < 50 nM

Would you be so kind as to report IC50 for each listed record?
1. Cn1c(C(=O)N2CCCC2)nc2c(N3CCC(n4c(=O)[nH]c5ccccc54)CC3)ncnc21
2. Cn1cc(-c2nc3c(N4CCN(S(=O)(=O)c5ccccc5C(F)(F)F)CC4)ncnc3n2C)cn1
3. Cc1ccccc1CNC(=O)c1nc2c(N3CCC4(CC3)C(=O)Nc3ccccc34)ncnc2n1C
4. COc1ccccc1CNC(=O)c1nc2c(N3CCC(n4c(=O)[nH]c5ccccc54)CC3)ncnc2n1C
5. C#CCNC(=O)c1nc2c(N3CCC4(CC3)C(=O)Nc3ccccc34)ncnc2n1C
6. CC(C)c1nnc(-c2nc3c(N4CCC5(CC4)C(=O)Nc4ccccc45)ncnc3n2C)o1

Response:
["250 to 500 nM", "50 to 250 nM", "500 to 1500 nM", "250 to 500 nM", "50 to 250 nM", "< 50 nM"]

Would you be so kind as to report IC50 for each listed record?
1. Cn1c(-c2cocn2)nc2c(N3CCC(n4c(=O)[nH]c5ccccc54)CC3)ncnc21
2. O=C(NCC1CC1)c1nc2c(N3CCC(n4c(=O)[nH]c5ccccc54)CC3)ncnc2n1C1CC1
3. Cn1cc(-c2nc3c(N4CCC(n5c(=O)[nH]c6ccccc65)CC4)ncnc3n2C)cn1
4. CCn1cc(-c2nc3c(N4CCC(n5c(=O)[nH]c6ncccc65)CC4)ncnc3n2C)cn1
5. Cn1cc(-c2nc3c(N4CCC(CN)(c5ccccc5)CC4)ncnc3n2C)cn1
6. Cn1c(C(=O)NCC2CC2)nc2c(N3CCC(n4nnc5ccccc54)CC3)ncnc21
7. CCn1c(-c2nnc(C(C)C)o2)nc2c(N3CCC(n4c(=O)[nH]c5ccccc54)CC3)ncnc21

Response:
["500 to 1500 nM", "50 to 250 nM", "< 50 nM", "< 50 nM", "500 to 1500 nM", "500 to 1500 nM", "< 50 nM"]

Would you be so kind as to report IC50 for each listed record?
1. CCn1cc(-c2nc3c(N4CCN(S(=O)(=O)c5ccccc5)CC4)ncnc3n2C)cn1
2. Cn1c(C(=O)NC2CC2)nc2c(N3CCC(n4c(=O)[nH]c5ccccc54)CC3)ncnc21
3. CCn1c(C(=O)NC(C)C2CC2)nc2c(N3CCC4(CC3)C(=O)Nc3ccccc34)ncnc21 (stereo not shown)
4. Cn1c(C(=O)NCCCc2ccccc2)nc2c(N3CCC(n4c(=O)[nH]c5ccccc54)CC3)ncnc21
5. CC(NC(=O)c1nc2c(N3CCC(n4c(=O)[nH]c5ccccc54)CC3)ncnc2n1C)c1ccccc1 (stereo not shown)
6. Cn1c(-n2cnc(C(F)(F)F)c2)nc2c(N3CCC(n4c(=O)[nH]c5ccccc54)CC3)ncnc21
7. CCCCc1nnc(-c2nc3c(N4CCC(n5c(=O)[nH]c6ccccc65)CC4)ncnc3n2C)o1

Response:
50 to 250 nM
50 to 250 nM
< 50 nM
500 to 1500 nM
500 to 1500 nM
50 to 250 nM
< 50 nM

Would you be so kind as to report IC50 for each listed record?
1. CN(C)c1ncc(-c2nc3c(N4CCC(n5c(=O)[nH]c6ccccc65)CC4)ncnc3n2C)cn1
2. COC(=O)[C@H]1CN(c2ncnc3c2nc(-c2cnn(C)c2)n3C)CC[C@H]1n1c(=O)[nH]c2ccccc21

Response:
1: < 50 nM; 2: 500 to 1500 nM
